Where these numbers come from: patent US20240400654A1

biological target: HRgpA-6H (Porphyromonas gingivalis) (UniProt P28784); assay: ELISA, coated HRgpA-6H
Consider the following binders; for each one, report its Ratio OD(Variant)/OD(WT).

stdin: Any idea what its Ratio OD(Variant)/OD(WT) is? The binder is KB001 mouse Fab VL S32P (Fab, V domains shown) VH: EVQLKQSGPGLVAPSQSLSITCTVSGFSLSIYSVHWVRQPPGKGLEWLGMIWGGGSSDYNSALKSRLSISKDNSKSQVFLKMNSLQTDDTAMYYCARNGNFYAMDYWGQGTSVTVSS VL: QIVLTQSPAIMSASLGERVTMTCTASSSVSSPFLHWYQQKPGSSPQLWIYSTSNLASGVPARFSGSGSGTSYSLTISSMEAEDAATYYCHQYHHSPYIYTFGGGTKLEIK
stdout: 0.88

stdin: # lookup: Ratio OD(Variant)/OD(WT) of KB001 mouse Fab VH N100E (Fab, V domains shown) VH: EVQLKQSGPGLVAPSQSLSITCTVSGFSLSIYSVHWVRQPPGKGLEWLGMIWGGGSSDYNSALKSRLSISKDNSKSQVFLKMNSLQTDDTAMYYCARNGEFYAMDYWGQGTSVTVSS VL: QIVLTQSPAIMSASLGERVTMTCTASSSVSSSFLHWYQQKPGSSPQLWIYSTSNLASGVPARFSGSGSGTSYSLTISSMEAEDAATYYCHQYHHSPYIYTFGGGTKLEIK
stdout: 1.05
